Measured values drawn from the FLAb antibody collection (doi:10.7554/elife.23156) for this set.

B1: scFv; the commonest letter at each place (parent)
chain 1: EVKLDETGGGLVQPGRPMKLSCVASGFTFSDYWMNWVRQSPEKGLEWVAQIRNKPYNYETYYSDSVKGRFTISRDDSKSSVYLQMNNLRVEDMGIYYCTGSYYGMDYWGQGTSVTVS
chain 2: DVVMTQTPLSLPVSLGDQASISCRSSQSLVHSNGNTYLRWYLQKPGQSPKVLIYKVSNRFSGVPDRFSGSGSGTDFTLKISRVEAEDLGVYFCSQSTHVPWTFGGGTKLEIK

- Variants of: B1
- Protocol summary: Kd (Tite-Seq)
- Experimental parameters: with fluorescein; format: scFv 4-4-20, heavy + light
pKd: −log10 of the molar value.
Metric name: pKd

Endpoint output: pKd of chain 1 V37D . Value?
8.91

Any idea what pKd was measured for chain 1 S101Q G109S ?
≤ 5.00

Endpoint output: pKd of chain 1 G100D S101I . Value?
≤ 5.00

// pKd lookup, key: chain 1 S30K N35I
≤ 5.00

Item chain 1 G100V S101M has what recorded pKd?
≤ 5.00

Dear colleague, I am looking for the recorded pKd of the following variant: chain 1 Y103I G109V
≤ 5.00
